measured on: Plasmepsin II (Plasmodium falciparum)
Sequence (P46925 whole entry): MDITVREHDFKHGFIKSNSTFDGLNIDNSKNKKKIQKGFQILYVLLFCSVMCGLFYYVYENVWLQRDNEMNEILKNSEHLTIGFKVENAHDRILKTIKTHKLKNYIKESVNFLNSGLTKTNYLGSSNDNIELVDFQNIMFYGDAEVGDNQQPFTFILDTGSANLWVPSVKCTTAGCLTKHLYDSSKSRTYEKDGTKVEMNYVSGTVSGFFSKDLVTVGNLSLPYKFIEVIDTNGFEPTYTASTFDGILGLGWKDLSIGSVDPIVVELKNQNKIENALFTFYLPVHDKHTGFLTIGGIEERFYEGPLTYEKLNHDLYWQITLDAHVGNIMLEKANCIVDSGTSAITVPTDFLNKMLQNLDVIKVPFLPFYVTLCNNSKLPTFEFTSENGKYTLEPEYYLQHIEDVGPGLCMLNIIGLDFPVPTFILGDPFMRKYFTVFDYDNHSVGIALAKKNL
assay name: Inhibition of Plasmodium falciparum plasmepsin-2
Would you kindly list pKi for each of these molecules?
// pKi is dimensionless: -log10 of concentration (M)

Please give the measured pKi for this molecule: "CC(C)C[C@H](NC(=O)[C@H](C)NC(=O)C[C@H](O)[C@H](COCc1ccc(Br)cc1)NC(=O)[C@@H](NC(=O)c1ccccn1)C(C)C)C(N)=O"
9.30

Please give the measured pKi for this molecule: "Cc1cccc(C)c1OCC(=O)N[C@@H](Cc1ccccc1)[C@@H](O)C[C@H](CC(C)C)NC(=O)[C@H](C(C)C)N1CCCNC1=O"
6.45

* * *

measured on: Plasmepsin II (Plasmodium falciparum) (UniProt P46925)
Sequence (P46925 125-453 limits assumed): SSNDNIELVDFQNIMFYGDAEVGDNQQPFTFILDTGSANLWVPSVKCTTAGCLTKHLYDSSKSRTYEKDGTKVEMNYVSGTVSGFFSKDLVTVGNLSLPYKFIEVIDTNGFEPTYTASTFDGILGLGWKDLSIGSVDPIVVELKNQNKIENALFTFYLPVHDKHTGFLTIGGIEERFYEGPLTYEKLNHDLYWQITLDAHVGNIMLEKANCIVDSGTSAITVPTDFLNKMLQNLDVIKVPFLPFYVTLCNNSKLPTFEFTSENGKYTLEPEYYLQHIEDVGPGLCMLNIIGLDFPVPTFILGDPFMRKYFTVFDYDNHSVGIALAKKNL
assay name: Irreversible inhibition of Plasmodium falciparum plasmepsin-2 expressed in Escherichia coli BL21 (DE3) at 1 uM measured after overnight dialysis by spun column chromatography
The source made the active and inactive calls. No cut-off for these calls is given here.
Give one outcome, nothing more. List: active, inactive

What classification did "C#CC[C@H](NC(=O)C[C@H](O)[C@H](Cc1ccccc1)NC(=O)[C@@H](NC(=O)c1ccccn1)C(C)C)C(=O)N[C@@H](CC(C)C)C(N)=O" end up with in this test?
active

What classification did "CC(C)C[C@H](NC(=O)[C@H](CCl)NC(=O)C[C@H](O)[C@H](Cc1ccccc1)NC(=O)[C@@H](NC(=O)c1ccccn1)C(C)C)C(N)=O" end up with in this test?
active

What classification did "C#CCNC(=O)[C@H](Cc1ccccc1)NC(=O)C[C@H](O)[C@H](Cc1ccccc1)NC(=O)[C@@H](NC(=O)c1ccccn1)C(C)C" end up with in this test?
inactive

What classification did "CC(C)C[C@H](NC(=O)[C@H](CC#N)NC(=O)C[C@H](O)[C@H](Cc1ccccc1)NC(=O)[C@@H](NC(=O)c1ccccn1)C(C)C)C(N)=O" end up with in this test?
inactive

* * *

measured on: Plasmepsin II (Plasmodium falciparum)
assay name: Inhibition of Plasmodium falciparum plasmepsin-2 expressed in Escherichia coli BL21 (DE3) at 1 uM after 1 to 2 hrs
Would you kindly list inhibition for each of these compounds?
Write the numeric value and append its unit.

Please give the measured inhibition for this compound: "CC(C)C[C@H](NC(=O)[C@H](CCl)NC(=O)C[C@H](O)[C@H](Cc1ccccc1)NC(=O)[C@@H](NC(=O)c1ccccn1)C(C)C)C(N)=O"
76.9%

Please give the measured inhibition for this compound: "C#CCNC(=O)[C@H](Cc1ccccc1)NC(=O)C[C@H](O)[C@H](Cc1ccccc1)NC(=O)[C@@H](NC(=O)c1ccccn1)C(C)C"
76.9%

Please give the measured inhibition for this compound: "CC(C)CC(=O)N[C@H](C(=O)N[C@H](C(=O)N[C@@H](CC(C)C)[C@@H](O)CC(=O)N[C@@H](C)C(=O)N[C@@H](CC(C)C)[C@@H](O)CC(=O)O)C(C)C)C(C)C"
97.8%

Please give the measured inhibition for this compound: "C#CC[C@H](NC(=O)C[C@H](O)[C@H](Cc1ccccc1)NC(=O)[C@@H](NC(=O)c1ccccn1)C(C)C)C(=O)N[C@@H](CC(C)C)C(N)=O"
76.9%

Please give the measured inhibition for this compound: "CC(C)C[C@H](NC(=O)[C@H](CC#N)NC(=O)C[C@H](O)[C@H](Cc1ccccc1)NC(=O)[C@@H](NC(=O)c1ccccn1)C(C)C)C(N)=O"
76.9%
